Could you please report measured LC retention time for the items listed next?
RUN_DESCRIPTION: HILIC, HILICON iHILIC-(P) Classic, HILIC, PEEK, 100 × 2.1 mm, 5 µm, 40 °C, 0.2 mL/min, estimated dead time 1.1 min; A: water + 20 mM ammonium carbonate + 5 µM medronic acid; B: 10% water + 90% acetonitrile + 2 mM ammonium carbonate + 0.5 µM medronic acid; gradient (min/%B) 0/95 18/55 19/20 22/20 22.5/95 24/95 26/95
PROTOCOL_CONDITIONS: stereoisomer not certain
Give just the numeric value; min need not be written.

Please report LC retention time for the following compound: O=P(O)(O)OC1OC(CO)C(O)C(O)C1O (centres undefined) [Glucose-1-phosphate] 11.9

Please report LC retention time for the following compound: NC(=O)CC(N)C(=O)O (centres undefined) 9.65

Please report LC retention time for the following compound: NC(CCC(=O)NC(CSSCC(NC(=O)CCC(N)C(=O)O)C(=O)NCC(=O)O)C(=O)NCC(=O)O)C(=O)O (centres undefined) 14.7

Please report LC retention time for the following compound: O=P(O)(O)OCC1OC(O)C(O)C(O)C1O (centres undefined) [Glucose-6-phosphate] 13.9

Please report LC retention time for the following compound: O=C(O)C=CC(=O)O 12.4

Please report LC retention time for the following compound: CC(=O)NC1C(OP(=O)(O)OP(=O)(O)OCC2OC(n3ccc(=O)[nH]c3=O)C(O)C2O)OC(CO)C(O)C1O (centres undefined) 12

Please report LC retention time for the following compound: Nc1ncnc2c1ncn2C1OC(COP(=O)(O)OP(=O)(O)OP(=O)(O)O)C(O)C1O (centres undefined) 13.3

Please report LC retention time for the following compound: O=C(O)CCC(=O)C(=O)O 12.7

Please report LC retention time for the following compound: O=C(O)CC(O)(CC(=O)O)C(=O)O 15.3
